Recorded melting point values for a group of compounds are listed next.

| Compound | Recorded value |
| --- | --- |
| CC(C)CC(Sc1c(Cl)cccc1Cl)c1c(O)cc(-c2ccccc2)oc1=O (stereo not given) | 158 to 162 °C |
| Oc1ccc2c(c1)CC(CCc1ccccc1)O2 (stereo not given) | 56 to 58 °C |
| NCC1COc2cc(F)cc(-c3ccccc3F)c2N1 (stereo not given) | 77 °C |
| COc1ccc([N+](=O)[O-])cc1C(O)OC (stereo not given) | 147 to 148 °C |
| CCOC(=O)C1=C(C)Nc2nnnn2C1c1cccc([N+](=O)[O-])c1 (stereo not given) | 210 to 212 °C |

Sample `CC(C)(C)c1ccc(C(=O)Nc2cn3nc(-n4cnc(Cl)c4Cl)ccc3n2)cc1` — what was its melting point?
281 to 282 °C

Sample `CC(C)(C)OC(=O)N[C@@H](CC1CCCCC1)[C@H](O)c1ccccn1` — what was its melting point?
84 to 85 °C

Sample `Cc1ccc2[nH]c(=O)n(C(C)(C)C(=O)OCC(=O)c3ccccc3)c(=O)c2c1` — what was its melting point?
189 to 191 °C

Sample `NS(=O)(=O)c1ccc(C2=C(c3cccc(F)c3F)CCC2)cc1` — what was its melting point?
133 to 134 °C

Sample `CSC(=NCCSCc1csc(NC(=N)N)n1)NC#N` — what was its melting point?
127 to 134 °C

Sample COc1ccc2c(c1OCc1ccccc1)CC(C(=O)O)N(C(=O)C(c1ccccc1)c1ccccc1)C2 (racemic) — what was its melting point?
157 to 159 °C

----------
Recorded melting point values for a group of molecules are listed next.

// solved cases for melting point follow
| Molecule | Recorded value |
| --- | --- |
| CC(=O)Oc1ccc([C@@H]2O[C@H]2CO)cc1 | 59 to 61 °C |
| CC(C)=CCN1Cc2c(Br)ccc3[nH]c(=S)n(c23)C[C@@H]1C | 161 °C |
| COC1CCN(c2ccn3nc(-c4ccccc4)c(-c4ccc(=O)n(C(C)C)n4)c3c2)CC1 | 177 to 178 °C |
| Cc1cc2[nH]c(=O)n(C3CCN(CCCN(c4ccc(F)cc4)c4ccc(F)cc4)CC3)c2cc1C | 219 to 220 °C |

Sample `Cc1cc2c(s1)S(=O)(=O)N=C(NC(C)C)N2` — what was its melting point?
272 to 273 °C

Sample `O=C(O)Cc1c(C(=O)O)c2cc(Oc3cccc(Cl)c3)ccc2n1-c1ccc(OC(F)(F)F)cc1` — what was its melting point?
190 to 195 °C

Sample `Cc1cc(C(=O)Nc2cnccc2C)c2c(C)nn(-c3ccccc3)c2n1` — what was its melting point?
227 to 228 °C

Sample `N#Cc1cc(F)c(-n2nc(C(F)(F)F)n(C(F)F)c2=O)cc1F` — what was its melting point?
68 °C

Sample COc1cc(-c2cc(=O)c3ccc(OCC(O)CNC(C)C)cc3o2)cc(OC)c1OC (centres undefined) — what was its melting point?
106 to 107 °C

----------
Measured endpoint: melting point

Sample `CCOc1ccc(-c2[nH]c3ccc(OCc4ccccc4)cc3c2C)cc1` — what was its melting point?
143 to 145 °C

Sample `CC(C)(C)OC(=O)Nc1cc(OCC#N)c(C#Cc2ccccc2)cc1[N+](=O)[O-]` — what was its melting point?
170 °C

Sample O=CN(O)C(CO)CS(=O)(=O)c1ccccc1Sc1ccc(Cl)cc1 (stereo not given) — what was its melting point?
148 to 150 °C

Sample `Cc1nc2c(N)nc3ccc(OCc4ccccc4)cc3c2n1CCCCNC(=O)Nc1ccccc1` — what was its melting point?
202 to 204 °C

Sample `COc1ccc(-c2ccsc2)c2c1c(CCN(C)C)cn2C` — what was its melting point?
120 to 122 °C

----------
Measured endpoint: melting point

// solved cases for melting point follow
| Compound | melting point |
| --- | --- |
| CCc1nn(Cc2cccnn2)c(C(N)=O)c1NC(=O)c1cc(S(C)(=O)=O)ccc1OCC(C)C | 196 to 200 °C |
| CN(C)Cc1ccc(-c2cc3c(Nc4ccc(OCc5ccccc5)cc4)ncnc3[nH]2)cc1 | 272 to 274 °C |

Now for the compound whose melting point we want.
Sample `CC(=O)N1CCC(OCCOc2ccc(C(N)=O)cc2)CC1` — what was its melting point?
154 to 155 °C

----------
Measured endpoint: melting point

Sample `Cn1cc(-c2cc3cccnc3[nH]2)c2cc(C(=O)NCCC(N)=O)ccc21` — what was its melting point?
286 to 288 °C

----------
Recorded melting point values for a group of molecules are listed next.

| Molecule | melting point |
| --- | --- |
| CC(=O)N[C@H]1CC[C@H](c2ccc(S(N)(=O)=O)cc2)CC1 | 268 to 269 °C |
| Cn1c(CNCC2CCOCC2)cc2cc(NC(=O)c3ccc(OCC4CCOC4)cc3)ccc21 (stereo not given) | 153 to 154 °C |

Sample `OCCn1cc(C(CC2CCCCCC2)=NO)c2c(Cl)cccc21` — what was its melting point?
120 to 123 °C

Sample N=C(N)c1ccc(C(=O)N2CCCCC2C(=O)N2CCC(OCC(=O)O)CC2)cc1 (stereo not given) — what was its melting point?
233 to 234 °C

Sample CCOC(Cc1ccc(OCCN(C)c2nc3ccccc3o2)cc1)C(N)=S (stereo not given) — what was its melting point?
46 to 48 °C

----------
Recorded melting point values for a group of compounds are listed next.

// solved cases for melting point follow
| Smiles record | melting point |
| --- | --- |
| CCC(=O)CNC(=O)c1cc(OC)cc(Oc2cccc(C(F)(F)F)c2)n1 | 100 to 103 °C |
| CNC(=O)c1ccccc1Nc1nc(Nc2ccc3c(c2)CCCC(=O)N3)ncc1Cl | 283 °C |
| NC1=Nc2cc(Cl)ccc2Nc2cscc21 | 239 to 240 °C |
| Cc1c(C(=O)C2C(=O)CCCC2=O)ccc(S(C)(=O)=O)c1S(C)(=O)=O | 301 to 302 °C |

Now for the compound whose melting point we want.
Sample `COc1cc(-c2cnc3[nH]cc(C(=O)C4(C)CCCC4)c3n2)cc(OC)c1OC` — what was its melting point?
244 to 246 °C

----------
Measured endpoint: melting point

// solved cases for melting point follow
| Molecule | melting point |
| --- | --- |
| Cn1cc(S(C)(=O)=O)c(=O)c2ccc(C(F)(F)F)cc21 | 300 to 301 °C |
| CCc1c(C(=O)c2cc(C)cc(C#N)c2)[nH]c(=O)[nH]c1=O | 253 to 254 °C |
| O=C(O)CC1(O)CC(CCCCCCc2ccc(Cl)cc2Cl)OC1=O (centres undefined) | 77 to 79 °C |

Sample `CC(C)(C)c1cc(-n2nc3ccc(S(=O)(=O)c4ccc5nn(-c6cc(C(C)(C)C)cc(C(C)(C)C)c6O)nc5c4)cc3n2)c(O)c(C(C)(C)C)c1` — what was its melting point?
> 300 °C

Sample `CCN1C(=O)C(=C(Cc2ccccc2)OC)SC1=S` — what was its melting point?
120 to 122 °C

Sample `C=CCCCOc1ccc(-c2ccc([N+](=O)[O-])cc2)cc1` — what was its melting point?
74 to 76 °C

Sample `O=C(Nc1ccc(Br)c(C(F)(F)F)c1)c1ccccc1[N+](=O)[O-]` — what was its melting point?
157 to 158 °C

Sample `COc1ccc(C(=O)O)c2c1CCCC2` — what was its melting point?
214 to 215 °C

Sample `CCOC(=O)c1nc2sc(CC)c([N+](=O)[O-])c2c(=O)[nH]1` — what was its melting point?
200 to 212 °C

----------
Recorded melting point values for a group of compounds are listed next.

| Compound | melting point |
| --- | --- |
| COC(=O)c1cc(NC(=O)c2ccccc2Cl)c2cc(Cc3ccc(F)cc3)cnc2c1O | 230 to 232 °C |
| CCC(C)Oc1ccccc1-c1nc2ccc(C(=O)O)cc2c(=O)[nH]1 (stereo unspecified) | 242 to 244 °C |
| CCCCn1c(=S)sc2c(=N)n(NC(=O)c3ccco3)cnc21 | 210 °C |
| COC(=O)CCc1ccccc1CC1C2CCC(O2)C1c1nc(C(=O)CCCCCC2CCCCC2)co1 (stereo unspecified) | 170 to 171 °C |
| CCCCCCCCCCCCCCCCOc1c2ncnc(SCC(=O)OCCCC)c2nn1C | 64 to 67 °C |

Sample O=C1CCC(N2Cc3c(CNC(=O)c4ccco4)cccc3C2=O)C(=O)N1 (stereo unspecified) — what was its melting point?
219 to 221 °C

Sample `Nc1cnc2c(F)c(Cl)c(F)cc2c1` — what was its melting point?
270 °C

Sample Cn1cc(S(C)=O)c(=O)c2ccc(F)cc21 (stereo unspecified) — what was its melting point?
226 to 228 °C

Sample CCCCCCCCCCCCCCc1ccc(OCC2COC(C)(C)O2)c(CC)c1 (stereo unspecified) — what was its melting point?
34 to 38 °C

Sample `N#Cc1ccc(C(=O)N2CCN(C(=O)C3CCN(c4ccncn4)CC3)CC2)cc1` — what was its melting point?
192 to 193 °C

Sample `Nc1cccc(S(=O)(=O)NC(=O)c2ccccc2)c1` — what was its melting point?
160 to 162 °C

Sample CC(=O)NC1(c2ccccc2)CCN(CCC(CN(CCc2ccccc2)CCc2ccccc2)c2ccc(Cl)c(Cl)c2)CC1 (stereo unspecified) — what was its melting point?
60 to 62 °C

Sample `N#CCCNC(=O)C1=CC(CF)(CF)Oc2ccc(C#N)cc21` — what was its melting point?
170 to 172 °C

Sample CNC(=O)C(C)Oc1ccc(Oc2ccc(C(F)(F)F)cc2)cc1 (stereo unspecified) — what was its melting point?
129 to 133 °C

Sample `CC(=Cc1ccccc1)n1c(=O)[nH]c2ccc(F)cc21` — what was its melting point?
190 °C

Recorded values, source a melting point compilation (Tetko et al.; mined from patent text by program, amines drawn as free bases though some values may be those of a salt).
